Below: a set of entries, each annotated with reported exon inclusion enrichment index.
B1: mRNA-splicing (parent)
chain: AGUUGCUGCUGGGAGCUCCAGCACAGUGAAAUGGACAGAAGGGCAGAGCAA

variants of: B1; assay: exon inclusion enrichment index; higher = more inclusion; WT1 exon 5 minigene, HEK293
Give a plain numeric answer without units written out.

Before answering, review these 8 worked examples.
C6A U7C C9A U10C A31U U32A : 0.902
G5C C6U G8C C9U U10C A23C C24U : 0.867
G5A C6G U7G C9A U27G : 0.000925
G5C C6U G8C C9U U10C U27C : 3.63
U7G C9A U10C : 2
G5U G8U C9U U27G G28C : 0.027
G5C C6A U7C G8A U10A G15U C16G : 0.018
C6A U7C C9A U10C G13U : 1.08

Recorded exon inclusion enrichment index (variant C6A U7C C9A U10C C22U A23G ): 3.38

Recorded exon inclusion enrichment index (variant G5C C6U G8C C9U U10C G28A ): 0.598

Recorded exon inclusion enrichment index (variant G5C C6A U7C G8A U10A C24A A25U ): 0.146

Data provenance: the RNAGym collection of RNA variant scans (doi:10.1101/gr.219683.116)
